Values were extracted from paper PMC5540273.

# %Inh listing for each entry below
# System: LYN;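 further: KINOMEscan kinase panel screen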
# runParameters: concentration: 1 μM, replicates: in singlicate; n = 1
Use % as the unit, but write only the number.

[
  {
    "compound": "CSc1ccc(-c2cc3ncnc(SCC(=O)O)c3s2)cc1",
    "recordedEndpoint": "%Inh",
    "numericValue": 0
  },
  {
    "compound": "Cc1ccc(C(=O)NCC(N)=O)cc1-n1c(C)cc(OCc2ccc(F)cc2F)c(Br)c1=O",
    "recordedEndpoint": "%Inh",
    "numericValue": 18
  },
  {
    "compound": "COc1ccc(Nc2ncc(C#N)c(Nc3ccccc3C(N)=O)n2)cc1N1CCN(C)CC1.Cl",
    "recordedEndpoint": "%Inh",
    "numericValue": 93.9
  }
]

IN: Which value of %Inh has been reported for N#Cc1c(N2CCOCC2)sc(-c2ccn[nH]2)c1-c1ccc(Cl)cc1 in the records?
OUT: 0
